system: Haemophilus influenzae; experiment: Antibacterial activity against ampicillin-resistant Haemophilus influenzae ATCC 49247 by CLSI microdilution method; assay type: functional
ASSAY METRIC: log10(MIC) (log10 of the value in µg/mL)
Lab note - MIC converted to log10 from values in µg/mL.

Field: example entries. Status: answers known.
Cc1ccccc1-c1cc2nc(N)nc(N)c2cc1C; 0.60
Cc1cc2c(N)nc(N)nc2cc1-c1ccccc1C(C)C; 0.90
CCOc1ccc(C=O)cc1-c1cc2nc(N)nc(N)c2cc1C; 0.30
Cc1cc2c(N)nc(N)nc2cc1-c1ccc(S(C)(=O)=O)cc1; 0.90

// each compound listed below needs its log10(MIC)
1. COc1cc(Cc2cnc(N)nc2N)cc(OC)c1OC [TRIMETHOPRIM]
2. CCOc1ccc(-c2cccc(NS(C)(=O)=O)c2)cc1-c1ccc2c(N)nc(N)nc2c1
3. Cc1cc2c(N)nc(N)nc2cc1-c1ccc(N)cc1
4. CS(=O)(=O)c1ccc(-c2ccc3c(N)nc(N)nc3c2)cc1

1: -0.30; 2: 0.90; 3: 0.30; 4: 1.20

* * *

Exercise: for every item that follows, state its recorded MIC.
system: Staphylococcus aureus; experiment: Antibacterial activity against Staphylococcus aureus Smith ATCC 13709 in presence of 20% mouse serum by CLSI microdilution method; type: functional
Numbers only, in mg/L.

Check out these entries, answers already filled in.
CCOc1ccccc1-c1ccc2c(N)nc(N)nc2c1; 8
Cc1cc2c(N)nc(N)nc2cc1-c1ccc(S(C)(=O)=O)cc1; 1

Batch request: MIC per item, same order as input.
1. CCOc1ccc(C=O)cc1-c1cc2nc(N)nc(N)c2cc1C
2. Nc1ccc(-c2ccc3c(N)nc(N)nc3c2)cc1

[1, 2]

* * *

test system: Staphylococcus aureus; test: Antibacterial activity against Staphylococcus aureus Smith ATCC 13709 in presence of 20% mouse serum by CLSI microdilution method; format: functional
Provide the recorded MIC for the entries that follow.
Numbers only, in µg/mL.

CCOc1ccc(-c2cccc(NS(C)(=O)=O)c2)cc1-c1ccc2c(N)nc(N)nc2c1; 2

Batch lookup, MIC per entry.
1. Cc1ccccc1-c1cc2nc(N)nc(N)c2cc1C
2. CCOc1ccc(C)cc1-c1cc2nc(N)nc(N)c2cc1C
3. CC(=O)c1cccc(-c2cc3nc(N)nc(N)c3cc2C)c1
4. CCOc1ccc(Cl)cc1-c1cc2nc(N)nc(N)c2cc1C
5. CCOc1ccc(Br)cc1-c1cc2nc(N)nc(N)c2cc1C

2
4
1
2
8

* * *

Test system Dihydrofolate reductase (Staphylococcus aureus), pKi listed for each of the molecules.
Give bare numbers, as −log10 of the molar value.

Consider the reported pKi for these molecules:
Cc1cc2c(N)nc(N)nc2cc1-c1ccccc1; 8.80
CS(=O)(=O)c1ccc(-c2ccc3c(N)nc(N)nc3c2)cc1; 8.30
CCc1ccccc1-c1cc2nc(N)nc(N)c2cc1C; 9.72
CCOc1ccccc1-c1ccc2c(N)nc(N)nc2c1; 8.51
CCOc1ccc(Br)cc1-c1cc2nc(N)nc(N)c2cc1C; 9.12

Kindly state the measured pKi obtained for CCOc1ccc(-c2cccnc2)cc1-c1ccc2c(N)nc(N)nc2c1 with Dihydrofolate reductase (Staphylococcus aureus).
Sequence (P0A017 whole entry): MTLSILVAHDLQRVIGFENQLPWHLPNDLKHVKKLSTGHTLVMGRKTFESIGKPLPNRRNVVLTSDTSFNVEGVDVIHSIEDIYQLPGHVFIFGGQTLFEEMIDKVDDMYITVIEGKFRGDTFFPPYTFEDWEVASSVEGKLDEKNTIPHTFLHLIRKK
9.52

* * *

test: Inhibition of Haemophilus influenzae DHFR assessed as oxidation of NADPH using dihydrofolate as substrate pre-incubated for 10 mins before substrate addition by spectrophotometry
pKi: −log10 of the molar value.
Returns one of met or not met; met when pKi is >= 10.

CCOc1ccc(-c2cccc(NS(C)(=O)=O)c2)cc1-c1ccc2c(N)nc(N)nc2c1; met
COc1cc(Cc2cnc(N)nc2N)c2c(c1OC)OC(C1CC1)C=C2 (centres undefined); met
CCOc1ccc(C=O)cc1-c1cc2nc(N)nc(N)c2cc1C; not met
Nc1nc(N)c2ccc(-c3ccccc3)cc2n1; not met
COc1ccccc1-c1ccc2c(N)nc(N)nc2c1; not met
CCOc1ccc(C)cc1-c1cc2nc(N)nc(N)c2cc1C; met
CCOc1ccc2ccccc2c1-c1cc2nc(N)nc(N)c2cc1C; met
CC(=O)c1cccc(-c2cc3nc(N)nc(N)c3cc2C)c1; met
CCOc1ccc(C(=O)N(CC)CC)cc1-c1cc2nc(N)nc(N)c2cc1C; met
COc1ccc(-c2cc3nc(N)nc(N)c3cc2C)cc1OC; met

Turning now to a further record.
Determine whether this molecule has pKi no lower than 10: CCOc1ccc(Cl)cc1-c1cc2nc(N)nc(N)c2cc1C
met

* * *

test system: Staphylococcus aureus; assay: Antibacterial activity against Staphylococcus aureus Smith ATCC 13709 in presence of 20% mouse serum by CLSI microdilution method; assay type: functional
ASSAY METRIC: MIC (µg/mL)
Give bare numbers, in µg/mL.

Please review the following examples before continuing.
COc1cc(Cc2cnc(N)nc2N)c2c(c1OC)OC(C1CC1)C=C2 (stereo not given); 0.13
Cc1cc2c(N)nc(N)nc2cc1-c1ccccc1; 2
CCc1ccccc1-c1cc2nc(N)nc(N)c2cc1C; 0.5
CCOc1ccc2ccccc2c1-c1cc2nc(N)nc(N)c2cc1C; 0.5
CCOc1ccc(C(=O)N(CC)CC)cc1-c1cc2nc(N)nc(N)c2cc1C; 0.5

Quick one: give me MIC for each item below, same order please.
1. Cc1cc2c(N)nc(N)nc2cc1-c1ccc(N)cc1
2. COc1ccccc1-c1ccc2c(N)nc(N)nc2c1
3. Cc1cc2c(N)nc(N)nc2cc1-c1ccccc1C(C)C
4. CS(=O)(=O)c1ccc(-c2ccc3c(N)nc(N)nc3c2)cc1

1
4
1
8

Which MIC is listed for CC(=O)c1cccc(-c2ccc3c(N)nc(N)nc3c2)c1 ?
8

* * *

experiment: Inhibition of Haemophilus influenzae DHFR assessed as oxidation of NADPH using dihydrofolate as substrate pre-incubated for 10 mins before substrate addition by spectrophotometry
What Ki was measured for each of the following?
Give bare numbers, in nM.

Nc1ccc(-c2ccc3c(N)nc(N)nc3c2)cc1; 0.16
COc1cc(Cc2cnc(N)nc2N)cc(OC)c1OC; 0.19

Proceed to the following item.
Given the entry CCOc1ccc2[nH]ccc2c1-c1cc2nc(N)nc(N)c2cc1C , report its measured Ki.
0.082
